Tested on: HT-29
Assay notes: SRB colorimetric assay of cell growth and viability, HT-29
Type: cell-based, human
Experimental context: 48 hours exposure; read-out: LC50 HT-29
Where a SMILES comes first, the peptide text is derived from it. Bridges are numbered along the chain shown (N, C = ends). [ ]: non-standard residue; d: D form. The star is where a group is joined. d(aIle) = CC[C@H](C)[C@@H](N)C(=O)O; d(aThr) = C[C@@H](O)[C@@H](N)C(=O)O; Hexanoyl(5-Me) = CC(C)CCCC(=O)*; Orn = NCCC[C@H](N)C(=O)O; Dhb = C/C=C(\N)C(=O)O
CC50: recorded values
Numbers only here, please. The scale is µM.

Molecule: C/C=C1\NC(=O)[C@H](Cc2ccccc2)NC(=O)[C@@H](C(C)C)NC(=O)[C@@H]([C@@H](C)CC)NC(=O)[C@H](NC(=O)[C@H](NC(=O)[C@H](CCCN)NC(=O)[C@H]2CCCN2C(=O)[C@H](NC(=O)[C@@H](NC(=O)[C@@H](NC(=O)[C@H](NC(=O)CC[C@H](C)CC)C(C)C)[C@@H](C)O)C(C)C)C(C)C)[C@@H](C)CC)[C@@H](C)OC(=O)[C@H](C(C)C)NC1=O [Compound 16, [(4R)-MeHex^14]-KF]
Unit symbol: µM
Recorded measurement: 3.22

Now consider a different molecule.
Problem: Would you mind telling me what CC50 value was observed for C/C=C1\NC(=O)[C@H](Cc2ccccc2)NC(=O)[C@@H](C(C)C)NC(=O)[C@@H]([C@@H](C)CC)NC(=O)[C@H](NC(=O)[C@H](NC(=O)[C@H](CCCN)NC(=O)[C@H]2CCCN2C(=O)[C@H](NC(=O)[C@H](CC(C)C)NC(=O)[C@@H](NC(=O)[C@H](NC(=O)CCCC(C)C)C(C)C)[C@@H](C)O)C(C)C)[C@@H](C)CC)[C@@H](C)OC(=O)[C@H](C(C)C)NC1=O [Compound 45, [Leu^11]-KF] ({Hexanoyl(5-Me)}-[dV]TL[dV][dP][Orn][d(aIle)][d(aThr)][d(aIle)][dV]F[Dhb]V; ester 8-C) ?
Result: 3.66
